Molecular target: mouse EP3 α (Mus musculus)
Construct: expressed in transfected cells; host or cells: CHO cells (membrane fraction)
Sequence (P30557 whole entry): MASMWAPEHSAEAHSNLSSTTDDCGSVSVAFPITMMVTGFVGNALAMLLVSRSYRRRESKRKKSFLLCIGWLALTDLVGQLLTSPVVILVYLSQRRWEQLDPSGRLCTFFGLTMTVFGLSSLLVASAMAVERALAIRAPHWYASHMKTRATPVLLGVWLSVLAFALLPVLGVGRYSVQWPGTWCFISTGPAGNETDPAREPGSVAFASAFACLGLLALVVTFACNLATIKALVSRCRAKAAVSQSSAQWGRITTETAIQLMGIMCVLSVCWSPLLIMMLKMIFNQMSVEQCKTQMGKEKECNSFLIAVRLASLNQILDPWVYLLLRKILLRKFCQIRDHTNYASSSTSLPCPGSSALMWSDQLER
Test: Binding assay using cell expressing the prostanoid receptor subtypes (EP3α)
Conditions: more polar isomer; membrane fraction of CHO cell expressing mouse EP3α; [3H]-PGE2 2.5 nM; 1 hour, room temperature; pH 6.0; read-out: dissociation constant Ki (μM) EP3α
Description: For example, in a standard laboratory test, such effects of the compound of the present invention were confirmed by binding assay using cell expressing the prostanoid receptor subtypes. […] The standard assay mixture containing membrane fraction (0.5 mg/ml), [^3 H]-PGE2 in a final volume of 200 μl was incubated for 1 hour at room temperature. […] The radioactivity associated with the filter was measured by liquid scintillation counter. Kd and Bmax values were determined from Scatchard plots [Ann. […]
The following compounds are listed with their measured Ki values.

| compound | tested_target | Ki, µM |
| --- | --- | --- |
| O=C(O)CSCCCS[C@H]1C(=O)C[C@@H](O)[C@@H]1/C=C/C(O)Cc1cccc(COc2ccccc2)c1 (single isomer, unassigned) [Example 2(rr)] | mouse EP3 α (Mus musculus) | 1.9 |
| COc1ccc(CC(O)/C=C/[C@H]2[C@H](O)CC(=O)[C@@H]2SCCCSCC(=O)O)cc1Cl (single isomer, unassigned) | mouse EP3 α (Mus musculus) | 2.2 |
| O=C(O)CSCCCS[C@H]1C(=O)C[C@@H](O)[C@@H]1/C=C/C(O)Cc1cccc(-c2ccco2)c1 (single isomer, unassigned) | mouse EP3 α (Mus musculus) | 0.25 |
| O=C(O)CSCCCS[C@H]1C(=O)C[C@@H](O)[C@@H]1/C=C/C(O)Cc1cccc(C#Cc2ccccc2)c1 (single isomer, unassigned) | mouse EP3 α (Mus musculus) | 0.23 |

====

The following compounds are listed with their measured Ki values.
target: mouse EP3 α (Mus musculus); construct: expressed in transfected cells; host or cells: CHO cells (membrane fraction); experiment: Binding assay using cell expressing the prostanoid receptor subtypes (EP3α); settings: more polar isomer; membrane fraction of CHO cell expressing mouse EP3α; [3H]-PGE2 2.5 nM; 1 hour, room temperature; pH 6.0; read-out: dissociation constant Ki (μM) EP3α

| compound | tested_target | Ki |
| --- | --- | --- |
| O=C(O)CSCCCS[C@H]1C(=O)C[C@@H](O)[C@@H]1/C=C/C(O)Cc1cccc(CCF)c1 (single isomer, unassigned) | mouse EP3 α (Mus musculus) | 0.9 µM |
| O=C(O)CSCCCS[C@H]1C(=O)C[C@@H](O)[C@@H]1/C=C/C(O)Cc1cccc(COC2CCCCC2)c1 (single isomer, unassigned) | mouse EP3 α (Mus musculus) | > 10 µM |
| COc1cccc(CC(O)/C=C/[C@H]2[C@H](O)CC(=O)[C@@H]2SCCCSCC(=O)O)c1 (single isomer, unassigned) | mouse EP3 α (Mus musculus) | 0.51 µM |
| COCc1cccc(C[C@H](O)/C=C/[C@H]2[C@H](O)CC(=O)[C@@H]2SCCCSCC(=O)O)c1 | mouse EP3 α (Mus musculus) | 1.2 µM |
| C=CCOCc1cccc(CC(O)/C=C/[C@H]2[C@H](O)CC(=O)[C@@H]2SCCCSCC(=O)O)c1 (single isomer, unassigned) | mouse EP3 α (Mus musculus) | 6.2 µM |
| O=C(O)CSCCCS[C@H]1C(=O)C[C@@H](O)[C@@H]1/C=C/C(O)Cc1cccc(-c2ccccc2)c1 (single isomer, unassigned) [Example 2(r)] | mouse EP3 α (Mus musculus) | 0.97 µM |

====

The following compounds are listed with their measured log10 Ki values.
target: mouse EP4 (Mus musculus); construct: expressed in transfected cells; host or cells: CHO cells (membrane fraction); experiment: Binding assay using cell expressing the prostanoid receptor subtypes (EP4); settings: more polar isomer; membrane fraction of CHO cell expressing mouse EP4; [3H]-PGE2 2.5 nM; 1 hour, room temperature; pH 6.0; read-out: dissociation constant Ki (μM) EP4
Sequence (P32240 whole entry): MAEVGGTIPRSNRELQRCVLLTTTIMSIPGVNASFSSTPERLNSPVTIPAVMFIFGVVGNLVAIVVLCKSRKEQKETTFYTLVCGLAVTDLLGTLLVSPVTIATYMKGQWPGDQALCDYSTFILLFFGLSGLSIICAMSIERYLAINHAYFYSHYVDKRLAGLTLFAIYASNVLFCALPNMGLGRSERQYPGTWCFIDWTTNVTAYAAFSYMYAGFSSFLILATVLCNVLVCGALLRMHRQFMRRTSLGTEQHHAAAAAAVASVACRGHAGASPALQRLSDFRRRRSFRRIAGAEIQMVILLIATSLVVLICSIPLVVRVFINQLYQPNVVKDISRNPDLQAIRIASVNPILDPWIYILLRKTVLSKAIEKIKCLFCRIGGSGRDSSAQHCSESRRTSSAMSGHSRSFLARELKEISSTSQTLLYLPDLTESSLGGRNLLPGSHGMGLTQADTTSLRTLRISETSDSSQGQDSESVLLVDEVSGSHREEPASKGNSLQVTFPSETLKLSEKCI
experimental_readout: log10 Ki (log10 of the value in µM)

| compound | log10 Ki |
| --- | --- |
| COc1cccc(CC(O)/C=C/[C@H]2[C@H](O)CC(=O)[C@@H]2SCCCSCC(=O)O)c1 (single isomer, unassigned) [Example 2(f)] | -2.00 |
| COc1ccc(CC(O)/C=C/[C@H]2[C@H](O)CC(=O)[C@@H]2SCCCSCC(=O)O)cc1Cl (single isomer, unassigned) [Example 2(l)] | -1.96 |
| C=CCOCc1cccc(CC(O)/C=C/[C@H]2[C@H](O)CC(=O)[C@@H]2SCCCSCC(=O)O)c1 (single isomer, unassigned) [Example 2(lll)] | -2.85 |
| COCc1cccc(C[C@H](O)/C=C/[C@H]2[C@H](O)CC(=O)[C@@H]2SCCCSCC(=O)O)c1 [Example 2] | -2.01 |
| O=C(O)CSCCCS[C@H]1C(=O)C[C@@H](O)[C@@H]1/C=C/C(O)Cc1cccc(-c2ccccc2)c1 (single isomer, unassigned) [Example 2(r)] | -3.00 |
| O=C(O)CSCCCS[C@H]1C(=O)C[C@@H](O)[C@@H]1/C=C/C(O)Cc1cccc(-c2ccco2)c1 (single isomer, unassigned) [Example 2(ii)] | -2.55 |
| O=C(O)CSCCCS[C@H]1C(=O)C[C@@H](O)[C@@H]1/C=C/C(O)Cc1cccc(COC2CCCCC2)c1 (single isomer, unassigned) [Example 2(mmm)] | -1.40 |
| O=C(O)CSCCCS[C@H]1C(=O)C[C@@H](O)[C@@H]1/C=C/C(O)Cc1cccc(C#Cc2ccccc2)c1 (single isomer, unassigned) [Example 2(bbb)] | -3.52 |
| O=C(O)CSCCCS[C@H]1C(=O)C[C@@H](O)[C@@H]1/C=C/C(O)Cc1cccc(COc2ccccc2)c1 (single isomer, unassigned) [Example 2(rr)] | -2.38 |
| O=C(O)CSCCCS[C@H]1C(=O)C[C@@H](O)[C@@H]1/C=C/C(O)Cc1cccc(CCF)c1 (single isomer, unassigned) [Example 2(tt)] | -2.19 |
